Measured values drawn from patent US20130029970A1 for this set.

# assayed_system: recombinant human cannabinoid receptor CB1 (Homo sapiens, UniProt P21554)
# Construct: (cDNA clone) CNR01L000
# Sequence (P21554 whole entry): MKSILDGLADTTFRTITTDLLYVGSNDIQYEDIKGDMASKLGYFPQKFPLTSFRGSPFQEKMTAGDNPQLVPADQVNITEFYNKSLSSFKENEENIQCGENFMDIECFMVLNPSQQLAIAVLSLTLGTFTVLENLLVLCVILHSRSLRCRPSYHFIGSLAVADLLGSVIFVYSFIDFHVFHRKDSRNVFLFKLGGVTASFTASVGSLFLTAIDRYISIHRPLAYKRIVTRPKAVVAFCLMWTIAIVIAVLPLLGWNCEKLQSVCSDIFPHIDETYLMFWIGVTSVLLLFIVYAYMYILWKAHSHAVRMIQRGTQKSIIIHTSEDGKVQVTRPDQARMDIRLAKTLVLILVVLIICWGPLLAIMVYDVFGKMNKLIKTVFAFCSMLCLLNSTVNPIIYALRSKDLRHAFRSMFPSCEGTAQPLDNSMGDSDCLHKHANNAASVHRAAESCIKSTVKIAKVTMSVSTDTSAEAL
# experiment_summary: Cannabinoid receptor radioligand binding assay, [3H]-CP 55,940 displacement, hCB1
# assay_setup: displacement of 0.5 nM [3H]-CP 55,940; read-out: hCB1 IC50 (CP displ)
test_readout: IC50

>>> test_result("Cc1cc2cc(C(=O)c3ccncn3)sc2n1CCN1CCOCC1")
"> 10 µM"
>>> test_result("COc1ccc(C(=O)c2cc3cc(C)n(CCC(=O)O)c3s2)cc1")
"> 10 µM"
>>> test_result("COc1ccc(C(=O)c2cc3cc(C)n(CCN4CCOCC4=O)c3s2)cn1")
"> 10 µM"
>>> test_result("COc1ccc(C(=O)c2cc3cc(C)n(CCN4CCN(S(C)(=O)=O)CC4)c3s2)cn1")
"> 10 µM"

Please give IC50 for each item listed below.
1. Cc1cc2cc(C(=O)c3cccc(Cl)c3Cl)sc2[nH]1
2. COc1ccc(C(=O)c2cc3cc(C)n(CCCNS(=O)(=O)c4ccccc4)c3s2)cc1
3. COc1ccc(C(=O)c2cc3cc(C)n(C(=O)N4CCOCC4)c3s2)cc1

[reply]
1. > 10 µM
2. > 10 µM
3. > 10 µM

###

# assayed_system: recombinant human cannabinoid receptor CB2 (Homo sapiens)
# Construct: (cDNA clone) CNR0200000
# Sequence (P34972 whole entry): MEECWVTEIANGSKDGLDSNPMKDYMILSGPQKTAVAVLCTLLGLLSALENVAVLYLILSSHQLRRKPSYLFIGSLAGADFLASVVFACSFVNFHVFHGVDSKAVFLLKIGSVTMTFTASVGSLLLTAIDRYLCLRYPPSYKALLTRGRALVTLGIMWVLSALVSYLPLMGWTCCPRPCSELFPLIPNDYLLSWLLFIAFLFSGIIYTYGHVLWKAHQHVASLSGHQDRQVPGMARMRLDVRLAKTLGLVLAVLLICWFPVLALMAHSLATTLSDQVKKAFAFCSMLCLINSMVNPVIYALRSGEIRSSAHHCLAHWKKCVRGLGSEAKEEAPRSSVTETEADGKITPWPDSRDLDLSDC
# experiment_summary: Cannabinoid receptor radioligand binding assay, [3H]-CP 55,940 displacement, hCB2
# assay_setup: displacement of 0.5 nM [3H]-CP 55,940; read-out: hCB2 IC50 (CP displ)
pIC50: −log10 of the molar value.
test_readout: pIC50

Solved cases (6 shown):
>>> test_result("COc1ccc(C(=O)c2cc3cc(C)n(CCCNS(=O)(=O)c4ccccc4)c3s2)cc1")
"5.00 to 6.00"
>>> test_result("COc1ccc(C(=O)c2cc3cc(C)n(C(=O)N4CCOCC4)c3s2)cc1")
"< 5.00"
>>> test_result("Cc1cc2cc(C(=O)c3ccncn3)sc2n1CCN1CCOCC1")
"< 5.00"
>>> test_result("COc1ccc(C(=O)c2cc3cc(C)n(CCN4CCN(S(C)(=O)=O)CC4)c3s2)cn1")
"< 5.00"
>>> test_result("COc1ccc(C(=O)c2cc3cc(C)n(CCC(=O)O)c3s2)cc1")
"< 5.00"
>>> test_result("COc1ccc(C(=O)c2cc3cc(C)n(CCN4CCOCC4=O)c3s2)cn1")
"< 5.00"

The record that follows has no pIC50 shown yet.
[ask] Report measured pIC50; entry is Cc1cc2cc(C(=O)c3cccc(Cl)c3Cl)sc2[nH]1
[reply] 5.00 to 6.00

###

# assayed_system: recombinant human cannabinoid receptor CB1 (Homo sapiens, UniProt P21554)
# Construct: (cDNA clone) CNR01L000
# experiment_summary: Cannabinoid receptor radioligand binding assay, [3H]-CP 55,940 displacement, hCB1
pIC50: −log10 of the molar value.
Provide the reported pIC50 of each item.

>>> test_result("Cc1cc2cc(C(=O)c3ccc(N(C)C)cc3)sc2n1CCN1CCOCC1")
"< 5.00"
>>> test_result("CCS(=O)(=O)n1c(C)cc2cc(C(=O)c3cccnc3Cl)sc21")
"< 5.00"
>>> test_result("COc1ccc(C(=O)c2cc3cc(C)n(CCN4CCCC4)c3s2)c(Cl)c1")
"6.00 to 7.00"
>>> test_result("COc1ccc(C(=O)c2cc3cc(C)n(CCNS(C)(=O)=O)c3s2)cc1")
"< 5.00"
>>> test_result("Cc1ccc(C(=O)c2cc3cc(C)n(CCN4CCOCC4)c3s2)c(F)c1")
"5.00 to 6.00"

Please give pIC50 for each item listed below.
1. CCOc1ccc(C(=O)c2cc3cc(C)n(CCN4CCOCC4)c3s2)c(Cl)c1
2. Cc1cc2cc(C(=O)c3ccccc3)sc2n1CCN1CCOCC1
3. COc1ccc(C(=O)c2cc3cc(C)n(CCCNC(=O)C(F)(F)F)c3s2)cc1
4. COCCn1c(C)cc2cc(C(=O)c3ccc(OC)cc3)sc21

[reply]
1. 6.00 to 7.00
2. 5.00 to 6.00
3. 5.00 to 6.00
4. < 5.00
